- ASSAYED_SYSTEM: human TLR9 (Homo sapiens, UniProt Q9NR96)
- Sequence (Q9NR96 26-1032): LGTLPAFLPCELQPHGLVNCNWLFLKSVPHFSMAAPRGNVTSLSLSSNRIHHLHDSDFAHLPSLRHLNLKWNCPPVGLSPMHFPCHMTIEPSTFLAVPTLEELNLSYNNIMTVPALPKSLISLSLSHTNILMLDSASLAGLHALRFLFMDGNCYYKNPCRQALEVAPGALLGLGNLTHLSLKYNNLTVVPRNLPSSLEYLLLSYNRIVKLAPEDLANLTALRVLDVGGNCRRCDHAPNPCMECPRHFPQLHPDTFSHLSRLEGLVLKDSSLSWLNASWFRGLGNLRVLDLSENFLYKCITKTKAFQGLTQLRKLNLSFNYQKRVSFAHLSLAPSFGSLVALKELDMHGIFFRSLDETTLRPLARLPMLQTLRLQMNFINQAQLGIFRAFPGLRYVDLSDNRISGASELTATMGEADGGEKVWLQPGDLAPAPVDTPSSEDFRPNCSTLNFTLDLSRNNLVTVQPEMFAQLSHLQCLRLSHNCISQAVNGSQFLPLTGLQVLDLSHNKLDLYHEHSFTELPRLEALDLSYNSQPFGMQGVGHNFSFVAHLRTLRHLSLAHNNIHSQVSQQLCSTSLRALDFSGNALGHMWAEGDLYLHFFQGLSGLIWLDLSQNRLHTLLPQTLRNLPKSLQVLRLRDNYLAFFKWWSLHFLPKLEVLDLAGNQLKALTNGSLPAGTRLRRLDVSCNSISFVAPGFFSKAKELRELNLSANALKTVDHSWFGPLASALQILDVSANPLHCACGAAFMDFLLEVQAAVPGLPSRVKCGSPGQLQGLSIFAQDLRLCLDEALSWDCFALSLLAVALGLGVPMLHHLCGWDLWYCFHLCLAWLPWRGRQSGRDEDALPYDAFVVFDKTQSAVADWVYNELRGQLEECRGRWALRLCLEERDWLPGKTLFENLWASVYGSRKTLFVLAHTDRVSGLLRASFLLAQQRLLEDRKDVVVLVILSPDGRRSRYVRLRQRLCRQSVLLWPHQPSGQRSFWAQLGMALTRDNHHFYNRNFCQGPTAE
- ASSAY_NAME: TLR9 inhibition reporter assay (HEK-Blue cells, SEAP reporter, ODN2006 stimulation)
- MEASUREMENT_PARAMETERS: HEK-Blue cells overexpressing human TLR9, SEAP reporter, ODN2006 5 nM
Reported IC50 values for the following compounds.
REPORTED_METRIC: IC50

[[record]]
compound = "CC(C)c1c(-c2ccnc3[nH]ncc23)[nH]c2ccc(C3CCN(Cc4ccc(OCCN(C)c5ccccn5)cc4)CC3)cc12 [Example 894]"
assay_result = "100 to 1000 nM"

[[record]]
compound = "CC(=O)NCC(=O)N1CCC(c2ccc3[nH]c(-c4ccnc5[nH]ncc45)c(C(C)C)c3c2)CC1 [Example 567]"
assay_result = "> 50000 nM"

[[record]]
compound = "COc1c(C)c(-c2[nH]c3ccc(C4CCN(C5COC5)CC4)cc3c2C(C)C)nn2ncnc12 [Example 731]"
assay_result = "1000 to 50000 nM"

[[record]]
compound = "CC(C)c1c(-c2cc(C(C)(C)O)c3nccn3c2)[nH]c2ccc(C3CCN(CC(=O)N(C)C)CC3)cc12 [Example 343]"
assay_result = "100 to 1000 nM"

